FYI, the data here is from the supplement of paper PMC10724198.

test system: Saccharomyces cerevisiae; experiment: protein stability index of tFT-peptide fusion (C-terminal peptide) (PSI (0-1 scale)); higher = more stable (slower turnover); settings: genetic background: wild type; temperature: 30 C;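 note: PSI is a weighted mean of sequencing reads over stability bins, variants kept only with over 10 reads, mCherry proximal and sfGFP distal, peptide attached via GGGS linker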
Can you tell me protein stability index for the items I'm about to list?
Answers are plain numbers.

[
  {
    "Construct Sequence": "RWREGWGGFSLG",
    "Target Under Test": "Saccharomyces cerevisiae",
    "protein stability index": 0.665
  },
  {
    "Construct Sequence": "GFLEAIMRFCGL",
    "Target Under Test": "Saccharomyces cerevisiae",
    "protein stability index": 0.719
  }
]

Items follow; give protein stability index for each.
1. RWAVYDKNRETP
2. DRLVGRVGGHGM
3. LELTTIRHNHEL
4. RLDDFSALPPRY
5. NKTIVNNVKIRY

A.
0.657
0.755
0.695
0.781
0.574

Provide each entry's protein stability index from the list below.
1. PRLVALFEKNPD
2. ILLFSLKHRSDH
3. GGGWSRGGVGDR
4. GLDNNKCTEKKI
5. VKEKRDLSNYNI

A.
1. 0.661
2. 0.63
3. 0.672
4. 0.665
5. 0.677

For each entry beneath this line, provide reported protein stability index.
1. PVPERTSAEPPG
2. KKKKKKKYKQRK
3. PDVNLVRRVMSL
4. LRTLVARWIVGQ
5. PLIVSPCYSLVP
6. RLLVGFLSPFSC
7. SGDVENQMGEES

A.
1. 0.618
2. 0.706
3. 0.596
4. 0.515
5. 0.659
6. 0.713
7. 0.717
